For each record, write down the corresponding GI50.
System: UACC-257
Measurement Description: NCI tumour cell line growth inhibition, 48 h
Activity calls are given as the source filed them. Rule as the data show it: active = GI50 up to about 1.1 µM and inactive = higher.

Solved cases below.
Compound	System Name	GI50
CCCCOC(=O)C1C(c2ccc(Cl)cc2)NC(c2ccc(Cl)cc2)C(C(=O)OCCCC)S1(=O)=O (stereo not given)	UACC-257	> 100 µM (inactive)
CN1CCN(Cn2nc(-c3ccccc3)n(/N=C/c3ccc(-c4ccc(Cl)cc4Cl)o3)c2=S)CC1	UACC-257	18 µM (inactive)
COc1ccc(/C=C2\N=C(c3ccccc3)N(NC3=NC(=O)CC(=O)N3)C2=O)cc1	UACC-257	> 100 µM (inactive)

Dear colleague, could you send me GI50 for each of the items below? Thanks.
1. O=C(NC1C=CCC2C(=O)N(c3ccccc3)C(=O)C12)OCc1ccccc1 (stereo not given)
2. COCc1nc2c(OC)c(-c3nc4ccc(N5CCN(C)CC5)cc4[nH]3)cc(OC)c2[nH]1
3. COc1cc(C(=O)C/C(CCC(=O)Nc2ccc(Cl)cc2Cl)=N/Nc2nnc(C)n2N)ccc1O
4. O/N=C(/CC(O)(C(F)(F)F)C(F)(F)F)c1ccccc1
5. COC(Cc1ccccc1)NC(C)=O (stereo not given)
6. c1ccc(CN2CCCCC(Sc3ccccc3)CC2)cc1 (stereo not given)
7. N#Cc1c(C#N)c(-c2ccccc2)n(-c2ccccc2)c1N

result:
1: > 100 µM (inactive); 2: 17.7 µM (inactive); 3: > 100 µM (inactive); 4: > 10 µM (inactive); 5: > 100 µM (inactive); 6: > 100 µM (inactive); 7: > 100 µM (inactive)

====

System: HT-29
Measurement Description: NCI tumour cell line growth inhibition, 48 h
Activity calls are given as the source filed them. Cut-off read from the data, not from the text of the source: active = GI50 up to about 1.1 µM and inactive = higher.
Select the correct class. Options are active, inactive and nothing else.

Molecule	Discrete Label
C[C@@](Br)(C(=O)O)[C@H](Br)C(=O)O	inactive

Now consider the entry below.
query: Could you kindly confirm the outcome this assay logged for "CC(C)(CC(=O)Nc1ccccc1)C(=O)O" ?
result: inactive

====

System: UACC-62
Measurement Description: NCI tumour cell line growth inhibition, 48 h
The source made the active and inactive calls. Rule as the data show it: active = GI50 up to about 1.1 µM and inactive = higher.
Observation Type: GI50

Solved cases below.
Compound	GI50
CCC(C(=O)C(=O)OC)P1(=O)OC(C)(C)CN1C(C)(C)C (configuration not stated)	22.6 µM (inactive)
C[C@@]12[C@H]3CC[C@@H]1[C@H](O)C(=O)N2CC3	> 100 µM (inactive)
Cc1cc(=O)n(-c2ccccc2C)c(C)n1	> 100 µM (inactive)
OCCNc1ncnc2c1ncn2C1OC(CO)C(O)C1O (configuration not stated)	> 100 µM (inactive)
O=C(NCCCl)Nc1ccccc1	> 100 µM (inactive)

Dear colleague, could you send me GI50 for each of the items below? Thanks.
1. c1ccc2cc(CN3CCC(C4CCN(Cc5ccc6ccccc6c5)CC4)CC3)ccc2c1
2. COc1cc(/C=N/N=C(\N)NO)ccc1O
3. Cc1ccc(S(=O)(=O)Nn2c(S)c(C#N)c(-c3ccc([N+](=O)[O-])cc3)c(C#N)c2=O)cc1
4. Cc1cc2cc3c(C)cc(=O)oc3c(C)c2o1
5. CCC1CC(C)C(O)/C=C/C=C/CC(C)OC(=O)CC(O)C(OC)C1OC1OC(C)CC(O)(C(C)=O)C1O (configuration not stated)
6. O=C1c2ccccc2-c2c1c1ccccc1c(=O)n2-c1cccnc1
7. COc1ccc(/C(C)=N/NC(=O)c2ccncc2)c(OC)c1
8. COc1ccc(N2C(=O)C3CC(c4ccc(C)cc4)c4c([nH]c5ccccc45)C3C2=O)cc1 (configuration not stated)

result:
1: 2.03 µM (inactive); 2: 30.4 µM (inactive); 3: 25.8 µM (inactive); 4: > 100 µM (inactive); 5: > 100 µM (inactive); 6: 32 µM (inactive); 7: > 10 µM (inactive); 8: > 100 µM (inactive)

Dear colleague, could you send me GI50 for each of the items below? Thanks.
1. C=CC/N=C1\NC(=O)C(CC(=O)Nc2ccc(C)cc2)S1 (configuration not stated)
2. CCCCCC(O)[C@H]1C(=O)C[C@@H](O[Si](C)(C)C(C)(C)C)[C@@H]1/C=C/CCOCc1ccccc1 (some centres not stated)
3. Nc1cc(CO)cc(Nc2c3ccccc3nc3occc23)c1
4. CCOC(=O)C(O)(C(=O)OCC)c1cc(C(C)(C)C)c(O)c(C(C)(C)C)c1
5. COc1cc2c(cc1O)C1Cc3ccc(OC)c(O)c3C[N+]1(C)CC2 (configuration not stated)
6. C/C=C\C(CC(=O)NCCC1CN(S(=O)(=O)c2ccc(C)cc2)c2ccccc21)CC(=O)OC (configuration not stated)

result:
> 100 µM (inactive)
11.8 µM (inactive)
20.8 µM (inactive)
22.9 µM (inactive)
> 100 µM (inactive)
> 100 µM (inactive)

Dear colleague, could you send me GI50 for each of the items below? Thanks.
1. COc1ccc2c(-c3ccc(OCCN(C)C)cc3)c(Oc3ccc(Cl)cc3)c(=O)oc2c1
2. CC(C)(C)Nc1noc(=O)n1C(C)(C)C
3. CCCCCCCCCCCCCCCCNc1nc(=O)n(C2OC(C)C(O)C2O)cc1F (configuration not stated)

result:
1. 2.75 µM (inactive)
2. > 100 µM (inactive)
3. 15.6 µM (inactive)

====

Test system: M14
Measurement Description: NCI tumour cell line growth inhibition, 48 h
The source made the active and inactive calls. Cut-off read from the data, not from the text of the source: active = GI50 up to about 1.1 µM and inactive = higher.
Select the correct class. Options are 1 (active), 0 (inactive) and nothing else.

Compound	Discrete Label
O=C(CCN1CCN(c2ccccc2)CC1)N1CCc2c([nH]c3ccccc23)C1c1cccnc1 (stereo not given)	0

query: Could you kindly confirm the outcome this assay logged for CC12CCC([C@H](N3CCOCC3)/C1=N\OCCN1CCCC1)C2(C)C (stereo not given in full) ?
result: 0

query: Could you kindly confirm the outcome this assay logged for "Cc1cc(=O)n(-c2ccccc2C)c(C)n1" ?
result: 0

query: Could you kindly confirm the outcome this assay logged for COC(=O)c1ccccc1C1=C([N+](=O)[O-])C(c2cccc(Br)c2)C(C#N)=C(N)O1 (stereo not given) ?
result: 0

====

For each record, write down the corresponding GI50.
Tested on: NCI-H226
Measurement Description: NCI tumour cell line growth inhibition, 48 h
The source made the active and inactive calls. No stated cut-off is given here; in the data, active = GI50 up to about 1.1 µM and inactive = higher.

Compound	GI50
CC(C)(C)Nc1noc(=O)n1C(C)(C)C	> 100 µM (inactive)
CCCCCC(O)[C@H]1C(=O)C[C@@H](O[Si](C)(C)C(C)(C)C)[C@@H]1/C=C/CCOCc1ccccc1 (stereo partly drawn)	14 µM (inactive)

Dear colleague, could you send me GI50 for each of the items below? Thanks.
1. Cc1ccccc1C1OC(=O)c2ccccc21 (stereo not drawn)
2. COc1cc2c([C@@H](OC(=O)c3ccccc3)c3ccc4c(c3)OCO4)nccc2c(OC)c1OC
3. COC(=O)c1nc(-c2ccc(Cl)c(Cl)c2)nc2ccccc12
4. O=C1c2ccccc2C(=O)C2C3c4ccccc4C(c4ccccc43)C12 (stereo not drawn)
5. C/C=C1/CN2CCC34c5ccccc5N(C)C23C2CC1C4(C(=O)OC)C(OC(C)=O)O2 (stereo not drawn)
6. O=C1C=CC2(C=C1)O[C@H](COCc1ccccc1)[C@@H](COCc1ccccc1)O2
7. CC(O)c1ccc[n+](Cc2ccccc2)c1 (stereo not drawn)
8. O=c1ssc(Cl)c1Cl

result:
> 100 µM (inactive)
23.5 µM (inactive)
13.7 µM (inactive)
77.3 µM (inactive)
> 100 µM (inactive)
1.82 µM (inactive)
> 400 µM (inactive)
> 10 µM (inactive)

Dear colleague, could you send me GI50 for each of the items below? Thanks.
1. Nc1ncnc2c1ncn2[C@H]1CC[C@@H](NO)C1
2. COC(=O)C(C/C=C(\C)c1ccc(Cl)cc1)C(C)=O (stereo not drawn)
3. COc1ccc2c(-c3ccc(OCCN(C)C)cc3)c(Oc3ccc(Cl)cc3)c(=O)oc2c1
4. CCOCCOCCOCc1nc(C#N)c(N)o1
5. CC1=C(C(=O)Nc2ccccc2C)C(c2ccco2)C(C(=O)Nc2ccccc2C)=C(C)N1C

result:
1. > 100 µM (inactive)
2. 24.6 µM (inactive)
3. 23.9 µM (inactive)
4. > 100 µM (inactive)
5. > 100 µM (inactive)

Dear colleague, could you send me GI50 for each of the items below? Thanks.
1. Oc1ccc(Cl)cc1Sc1cc(Cl)ccc1O
2. COc1ccc(Cl)cc1NC(=O)O/N=C(\Cl)C(C)C
3. CCOC(=O)C(O)(C(=O)OCC)c1cc(C(C)(C)C)c(O)c(C(C)(C)C)c1
4. COc1ccc(Cc2c(N)[nH]c(=O)[nH]c2=O)cc1
5. COc1ccc(/C=C2\N=C(c3ccccc3)N(NC3=NC(=O)CC(=O)N3)C2=O)cc1

result:
1. 20.5 µM (inactive)
2. 12.7 µM (inactive)
3. 16.4 µM (inactive)
4. > 100 µM (inactive)
5. > 100 µM (inactive)

Dear colleague, could you send me GI50 for each of the items below? Thanks.
1. CC(=O)CC(=O)c1cc2c(=O)oc(C)cc2oc1=O
2. O=C1c2ccccc2C(=O)N1n1c(Cc2ccc(Cl)cc2)n[nH]c1=O
3. C[C@@](Br)(C(=O)O)[C@H](Br)C(=O)O

result:
1: > 37.5 µM (inactive); 2: > 100 µM (inactive); 3: > 100 µM (inactive)
